Target: T1, AMHRII receptor expressed on cells (cov434-AMHRII, Asc 1, META 2815) (human, UniProt Q16671 18-573)
T1 sequence (looked up): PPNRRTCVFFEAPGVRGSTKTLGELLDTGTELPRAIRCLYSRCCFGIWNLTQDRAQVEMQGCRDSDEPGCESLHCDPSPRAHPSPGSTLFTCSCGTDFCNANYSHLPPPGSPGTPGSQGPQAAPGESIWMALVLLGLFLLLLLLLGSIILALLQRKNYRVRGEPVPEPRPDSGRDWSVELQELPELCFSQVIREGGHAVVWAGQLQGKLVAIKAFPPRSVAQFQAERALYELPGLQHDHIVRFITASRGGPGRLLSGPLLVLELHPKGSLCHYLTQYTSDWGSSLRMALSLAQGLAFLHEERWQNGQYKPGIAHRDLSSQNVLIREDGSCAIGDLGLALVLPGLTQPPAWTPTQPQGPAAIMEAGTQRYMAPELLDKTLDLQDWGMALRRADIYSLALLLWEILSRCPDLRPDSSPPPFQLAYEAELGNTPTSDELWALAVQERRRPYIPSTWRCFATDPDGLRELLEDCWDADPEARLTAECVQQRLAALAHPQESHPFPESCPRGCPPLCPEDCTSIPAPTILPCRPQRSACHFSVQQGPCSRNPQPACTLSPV
Assay: cell-based or functional assay
result.type: Emax (% of lysis), ADCC on ASC1 cells

Solved cases (3 shown):
binder: mutated humanized 12G4 antibody 3C-23 produced in YB2/0 (antibody, human IgG1, kappa, V domains shown, Chains without leader; Mutations VH-Q3R, VL-I177T/S179P; also called 3C_23 YB2/0; R901 3C23) VH: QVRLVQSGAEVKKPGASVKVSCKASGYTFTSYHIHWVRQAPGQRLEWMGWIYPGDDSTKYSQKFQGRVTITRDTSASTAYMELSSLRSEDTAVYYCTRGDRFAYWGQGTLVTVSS VL: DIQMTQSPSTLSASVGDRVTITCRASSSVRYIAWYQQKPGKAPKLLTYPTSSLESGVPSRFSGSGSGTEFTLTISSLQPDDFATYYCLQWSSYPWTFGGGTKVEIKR
Emax (% of lysis), ADCC on ASC1 cells: 65.5 % of lysis

binder: mutated humanized 12G4 antibody 6B-78 produced in YB2/0 (antibody, human IgG1, kappa, V domains shown, Chains without leader; Mutation VL-E184K; also called 6B_78 YB2/0; R901 6B78) VH: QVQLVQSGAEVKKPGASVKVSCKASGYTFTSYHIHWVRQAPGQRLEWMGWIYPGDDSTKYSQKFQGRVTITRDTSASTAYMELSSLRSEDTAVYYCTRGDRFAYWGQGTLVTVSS VL: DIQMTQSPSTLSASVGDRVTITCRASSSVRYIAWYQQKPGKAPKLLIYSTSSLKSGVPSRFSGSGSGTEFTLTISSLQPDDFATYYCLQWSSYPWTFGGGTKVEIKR
Emax (% of lysis), ADCC on ASC1 cells: 51.9 % of lysis

binder: mutated humanized 12G4 antibody 3C-23K produced in YB2/0 (antibody, human IgG1, kappa, V domains shown, Chains without leader; also called 3C_23K YB2/0; 3C-23K-YB2/0) VH: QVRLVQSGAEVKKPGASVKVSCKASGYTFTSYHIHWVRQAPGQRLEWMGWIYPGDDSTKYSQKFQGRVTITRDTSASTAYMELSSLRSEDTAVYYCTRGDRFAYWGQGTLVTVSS VL: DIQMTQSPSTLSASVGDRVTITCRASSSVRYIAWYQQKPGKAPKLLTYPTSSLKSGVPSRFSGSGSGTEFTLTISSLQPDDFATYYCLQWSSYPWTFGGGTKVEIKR
Emax (% of lysis), ADCC on ASC1 cells: 79 % of lysis

Attention now turns to another entry.
For record unmutated humanized 12G4 monoclonal antibody (antibody, human IgG1, kappa, V domains shown, Variable regions without leader joined to the constant regions; also called huLFB112; 632 07 107 Anti AMHRII hum 1st) VH: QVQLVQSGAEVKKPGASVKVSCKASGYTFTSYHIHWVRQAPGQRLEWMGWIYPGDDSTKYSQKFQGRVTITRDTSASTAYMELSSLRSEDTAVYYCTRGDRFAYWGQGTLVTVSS VL: DIQMTQSPSTLSASVGDRVTITCRASSSVRYIAWYQQKPGKAPKLLIYSTSSLESGVPSRFSGSGSGTEFTLTISSLQPDDFATYYCLQWSSYPWTFGGGTKVEIKR the listed Emax (% of lysis), ADCC on ASC1 cells is 52.4 % of lysis
